- Tested on: human colon cancer cells (HCT116)
- experimental.protocol: Anti-proliferative activity, CCK-8 assay, HCT116
- Type: cell-based
- condition.summary: HCT-116, 72 h incubation
measurement.name: IC50 (nM)
Unit nM implied. Number only.

As a guide, the following entries are already answered.
CC(=S)Nc1cccc(-n2c(=O)n(C3CCCC3)c(=O)c3c(Nc4ccc(I)cc4F)n(C)c(=O)c(C)c32)c1 [Compound 4]; 1.6
Cc1c(=O)n(C)c(Nc2ccc(I)cc2F)c2c(=O)n(C3CC3)c(=O)n(-c3cccc(NC(=S)C(=O)O)c3)c12 [Compound 13]; 5.2
CCC(=S)Nc1cccc(-n2c(=O)n(C3CC3)c(=O)c3c(Nc4ccc(I)cc4F)n(C)c(=O)c(C)c32)c1 [Compound 5]; 3.8
Cc1c(=O)n(C)c(Nc2ccc(I)cc2F)c2c(=O)n(C3CC3)c(=O)n(-c3cccc(NC(=S)CO)c3)c12 [Compound 8]; 4.2
CC(=S)Nc1cccc(-n2c(=O)n(C)c(=O)c3c(Nc4ccc(I)cc4F)n(C)c(=O)c(C)c32)c1 [Compound 1]; 2.9

Could you share which IC50 value was measured for CC(=S)Nc1cccc(-n2c(=O)n(C3CC3)c(=O)c3c(Nc4ccc(I)cc4F)n(C)c(=O)c(C)c32)c1 [Compound 2] ?
2.6

Okay, and CC(=S)Nc1cccc(-n2c(=O)n(C(C)C)c(=O)c3c(Nc4ccc(I)cc4F)n(C)c(=O)c(C)c32)c1 [Compound 3] ?
2.1

Okay, and Cc1c(=O)n(C)c(Nc2ccc(I)cc2F)c2c(=O)n(C3CC3)c(=O)n(-c3cccc(NC(=S)CN)c3)c12 [Compound 12] ?
3.6
